- System: NCI-H460
- EXPERIMENT: NCI tumour cell line growth inhibition, 48 h
Active and inactive are the calls of the source. No stated cut-off is given here; in the data, active = GI50 up to about 1.1 µM and inactive = higher.
Just give me one of these, please: active, inactive

COc1c2c(cc3c1C(=O)Cc1ccc4c(c1CN(C)CC3)OCO4)OCO2 | inactive
Nc1ccc2[nH]c(C(=O)N3CC(CCl)c4c3cc(N)c3ccccc43)cc2c1 (stereo not drawn) | active

Kindly consider the entry below.
# fetch the recorded call for O=[N+]([O-])C(=C(c1ccccc1)c1ccccc1)[N+](=O)[O-] here
inactive

* * *

- Tested on: BT-549
- EXPERIMENT: NCI tumour cell line growth inhibition, 48 h
The source made the active and inactive calls. No stated cut-off is given here; in the data, active = GI50 up to about 1.1 µM and inactive = higher.
Just give me one of these, please: active, inactive

CCC(=O)O[C@H]1CC[C@H]2[C@@H]3CCC4=C/C(=N/OC(=O)c5cccc6c(=O)c7ccccc7[nH]c56)CC[C@]4(C)[C@H]3CC[C@]12C | inactive
C=C1C(=O)[C@]23C[C@H]1C[C@@H](O)[C@H]2[C@]1(COC3=O)[C@@H](OC(C)=O)CC[C@@](C)(COC(C)=O)[C@H]1C=O [LOXOTHYRIN A] | inactive
CC(=O)NCCC1CN(C(=O)/C=C\I)c2ccccc21 (stereo not given) | inactive
NS(=O)(=O)c1ccc(NNC(=O)c2cccc3c(=O)c4ccccc4[nH]c23)cc1 | inactive

# fetch the recorded call for Nc1ccc2[nH]c(C(=O)N3CC(CCl)c4c3cc(N)c3ccccc43)cc2c1 (stereo not given) here
active

# fetch the recorded call for Cc1ccc(S(=O)(=O)Oc2cc(S(=O)(=O)O)cc3cc(S(=O)(=O)O)cc(N)c23)cc1 here
inactive

# fetch the recorded call for COc1ccc(/C=c2\c(=O)[nH]c3nc4ccccc4c(=O)n23)cc1 here
inactive

# fetch the recorded call for Cc1ccc(SCC(CF)OC(C)n2cnc3c(Cl)nc(N)nc32)cc1 (stereo not given) here
inactive

# fetch the recorded call for Cc1ccccc1OC(C)C(=O)NN1C(=O)CSC1c1ccccc1 (stereo not given) here
inactive

# fetch the recorded call for O=C1OC(C2Cc3ccccc3C2=O)c2ccccc21 (stereo not given) here
inactive
